test_target: Protein-tyrosine kinase 6 (Homo sapiens)
condition_label: at 1 µM
Description: GSK_PKIS: BRK mean inhibition at 1 uM [Nanosyn]
Answer each item with its documented inhibition.
Answers are plain numbers, in %.

smiles_input=NC(=O)c1sc(-n2cnc3ccc(C(F)(F)F)cc32)cc1OCc1ccccc1Br unit_info=% reported_measurement=5.16

For each of the compounds below, state inhibition.
1. NS(=O)(=O)c1ccc(N/N=C2\C(=O)Nc3ccc4ncccc4c32)cc1
2. Cc1cccc2c1NC(=O)/C2=N\Nc1ccc(S(N)(=O)=O)cc1
3. N#Cc1c(NC(=O)c2ccc(F)cc2)sc2c1CCCC2
4. COC(=O)c1sc(-n2cnc3cc(OC)c(OC)cc32)cc1OCc1ccccc1C(F)(F)F
5. CNC(=O)c1cc(-c2ccc(F)cc2)cc(-c2ccc(S(=O)(=O)N3CCCC3)cc2)c1N
6. COc1ccc2[nH]c3c4[nH]c5ccc(OC)cc5c4c4c(c3c2c1)C(=O)NC4=O
7. COc1ccc(-c2cc3c(N)ncnc3o2)cc1

1: 31.9; 2: 1.67; 3: -2; 4: 4.35; 5: 1.57; 6: 19.6; 7: 2.82

GET /value?item= c1ccc(COc2ccc(Nc3ncnc4ccc(-c5ccco5)cc34)cc2)cc1 &field=inhibition returns 2.35

====

test_target: Insulin receptor (Homo sapiens) (UniProt P06213);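 note: each figure is a mean inhibition value from the GSK PKIS screening panel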
Sequence (P06213 28-758 limits assumed): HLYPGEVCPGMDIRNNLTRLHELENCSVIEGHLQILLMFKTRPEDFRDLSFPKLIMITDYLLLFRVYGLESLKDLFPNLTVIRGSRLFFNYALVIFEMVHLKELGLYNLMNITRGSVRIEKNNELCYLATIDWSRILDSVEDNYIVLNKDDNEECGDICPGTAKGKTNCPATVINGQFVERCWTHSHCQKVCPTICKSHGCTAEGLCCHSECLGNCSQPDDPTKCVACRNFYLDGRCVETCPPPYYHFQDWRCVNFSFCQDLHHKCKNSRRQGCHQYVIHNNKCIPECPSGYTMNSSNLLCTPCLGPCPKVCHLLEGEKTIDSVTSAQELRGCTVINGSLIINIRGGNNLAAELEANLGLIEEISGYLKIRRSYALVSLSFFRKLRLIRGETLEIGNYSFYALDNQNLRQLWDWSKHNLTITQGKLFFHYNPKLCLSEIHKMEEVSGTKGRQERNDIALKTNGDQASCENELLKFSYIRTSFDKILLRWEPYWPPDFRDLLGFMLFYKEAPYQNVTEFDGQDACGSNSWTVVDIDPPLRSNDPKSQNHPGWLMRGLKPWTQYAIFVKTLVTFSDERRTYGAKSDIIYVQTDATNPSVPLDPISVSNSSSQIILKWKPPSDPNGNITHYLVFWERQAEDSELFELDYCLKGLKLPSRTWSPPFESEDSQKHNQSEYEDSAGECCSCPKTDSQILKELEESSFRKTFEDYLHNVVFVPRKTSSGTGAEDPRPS
Sequence (P06213 763-1382 limits assumed): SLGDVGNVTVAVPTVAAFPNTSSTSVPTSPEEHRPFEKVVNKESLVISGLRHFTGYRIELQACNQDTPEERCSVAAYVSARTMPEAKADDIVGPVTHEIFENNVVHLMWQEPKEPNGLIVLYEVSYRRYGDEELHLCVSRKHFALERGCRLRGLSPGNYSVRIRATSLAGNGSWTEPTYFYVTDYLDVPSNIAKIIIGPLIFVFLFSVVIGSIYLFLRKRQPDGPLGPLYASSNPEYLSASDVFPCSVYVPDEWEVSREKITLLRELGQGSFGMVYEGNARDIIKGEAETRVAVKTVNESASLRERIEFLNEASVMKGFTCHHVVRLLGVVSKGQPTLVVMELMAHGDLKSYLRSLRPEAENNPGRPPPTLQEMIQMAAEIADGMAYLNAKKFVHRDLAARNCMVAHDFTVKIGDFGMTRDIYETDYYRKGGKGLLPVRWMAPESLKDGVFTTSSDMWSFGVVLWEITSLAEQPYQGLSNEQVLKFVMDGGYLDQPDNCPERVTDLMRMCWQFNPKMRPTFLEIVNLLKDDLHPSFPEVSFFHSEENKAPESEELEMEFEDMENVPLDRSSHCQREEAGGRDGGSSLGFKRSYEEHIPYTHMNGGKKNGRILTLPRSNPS
condition_label: at 1 µM
Consider the following compounds; for each one, report its inhibition.
Give bare numbers, in %.

smiles_input=Fc1ccc(-c2cc(-c3c[nH]nc3-c3ccccn3)ccn2)cc1 unit_info=% reported_measurement=5.34
smiles_input=N#Cc1c(NC(=O)c2ccc(F)cc2)sc2c1CCCC2 unit_info=% reported_measurement=2.79
smiles_input=CC(C)(CO)CNC(=O)c1ccc2c(c1)/C(=N/Nc1ccc(S(N)(=O)=O)cc1)C(=O)N2 unit_info=% reported_measurement=-0.37
smiles_input=Cc1ccc(O)cc1Nc1ccnc2cc(-c3ccccn3)ccc12 unit_info=% reported_measurement=5.51
smiles_input=CS(=O)(=O)CCNCc1ccc(-c2ccc3ncnc(Nc4ccc(OCc5ccccc5)c(C(F)(F)F)c4)c3c2)o1 unit_info=% reported_measurement=2.62

# per-item lookup of inhibition; items listed below
1. CCn1cc(-c2ccnc3[nH]ccc23)c(-c2cccc(NC(=O)Nc3ccc(OCc4ccccc4)cc3)c2)n1
2. CNC(=O)c1cc(-c2ccc(F)cc2)cc(-c2ccc(S(=O)(=O)N3CCCC3)cc2)c1N
3. COc1ccc(-c2oc3ncnc(N)c3c2-c2ccc(NC(=O)Nc3cc(C(F)(F)F)ccc3F)cc2)cc1

1: 3.81; 2: 5.39; 3: 27.2

// sample Fc1ccc(-c2nn3ncccc3c2-c2ccnc(Nc3ccc4c(c3)OCCO4)n2)cc1 , its inhibition was 18.3

====

test_target: Serine/threonine-protein kinase Nek1 (Homo sapiens)
Sequence (whole entry): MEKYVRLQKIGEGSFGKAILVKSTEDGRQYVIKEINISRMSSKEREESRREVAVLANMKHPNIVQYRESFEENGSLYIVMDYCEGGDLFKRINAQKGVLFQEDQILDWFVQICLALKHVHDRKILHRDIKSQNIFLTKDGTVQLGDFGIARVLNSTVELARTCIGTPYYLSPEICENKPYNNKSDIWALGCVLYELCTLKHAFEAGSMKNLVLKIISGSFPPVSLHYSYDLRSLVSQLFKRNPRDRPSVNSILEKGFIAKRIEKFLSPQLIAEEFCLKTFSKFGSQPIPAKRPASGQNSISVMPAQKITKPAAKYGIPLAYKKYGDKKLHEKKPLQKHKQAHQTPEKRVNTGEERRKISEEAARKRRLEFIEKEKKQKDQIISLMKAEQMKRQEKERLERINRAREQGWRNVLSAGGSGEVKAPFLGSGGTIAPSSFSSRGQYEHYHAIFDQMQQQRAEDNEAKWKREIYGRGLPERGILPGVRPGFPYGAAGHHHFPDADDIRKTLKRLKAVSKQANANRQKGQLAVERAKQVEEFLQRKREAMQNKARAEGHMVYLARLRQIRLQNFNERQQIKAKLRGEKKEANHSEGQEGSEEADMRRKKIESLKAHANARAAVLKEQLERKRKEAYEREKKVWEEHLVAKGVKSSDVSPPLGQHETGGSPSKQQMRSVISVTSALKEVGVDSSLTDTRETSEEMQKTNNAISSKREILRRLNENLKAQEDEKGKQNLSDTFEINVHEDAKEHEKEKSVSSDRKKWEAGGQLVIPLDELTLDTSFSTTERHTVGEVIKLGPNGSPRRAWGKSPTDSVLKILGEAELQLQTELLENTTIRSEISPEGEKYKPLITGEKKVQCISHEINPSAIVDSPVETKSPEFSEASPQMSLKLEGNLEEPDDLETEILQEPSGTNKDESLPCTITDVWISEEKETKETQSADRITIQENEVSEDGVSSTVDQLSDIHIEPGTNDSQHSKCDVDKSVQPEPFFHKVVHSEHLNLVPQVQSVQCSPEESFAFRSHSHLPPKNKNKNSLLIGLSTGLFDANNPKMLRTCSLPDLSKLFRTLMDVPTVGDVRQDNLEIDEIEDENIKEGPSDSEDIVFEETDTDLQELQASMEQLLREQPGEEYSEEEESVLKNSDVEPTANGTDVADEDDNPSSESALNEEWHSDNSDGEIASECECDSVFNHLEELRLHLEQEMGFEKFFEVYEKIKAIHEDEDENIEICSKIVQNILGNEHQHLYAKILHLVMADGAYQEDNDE
condition_label: at 1 µM
Description: GSK_PKIS: NEK1 mean inhibition at 1 uM [Nanosyn]
observed_property: inhibition (%)
One number for each entry, in %.

smiles_input=COc1cc2ncn(-c3cc(OCc4ccccc4C(F)(F)F)c(C(=O)N(C)C)s3)c2cc1OC observed_property=inhibition reported_measurement=4.81
smiles_input=N#Cc1c(NC(=O)c2ccc(F)cc2)sc2c1CCCC2 observed_property=inhibition reported_measurement=3.09

Quick batch: inhibition for everything below.
1. CC(C)COC(=O)c1ccc2c(c1)/C(=C/Nc1ccc(S(N)(=O)=O)cc1)C(=O)N2
2. CCN1CCC(CC(=O)Nc2n[nH]c3nnc(-c4cccc(F)c4F)cc23)CC1
3. c1cc(-c2cnn3nc(N4CCOCC4)ccc23)nc(NC2CC2)n1

2.33
1.21
6.78

====

System: Tyrosine-protein kinase ABL1 (Homo sapiens), P00519 [Y253F]
condition_label: at 1 µM
Binary classification by inhibition, with 4% as an inclusive lower bound for Y; all other cases are N.

Consider the worked cases shown below.
smiles_input=CNC(=O)c1cc(-c2ccc(F)cc2)cc(-c2ccc(S(=O)(=O)N3CCCC3)cc2)c1N class_assignment=Y
smiles_input=CCN1CCC(CC(=O)Nc2n[nH]c3nnc(-c4cccc(F)c4F)cc23)CC1 class_assignment=N
smiles_input=CNC(=O)c1cccc(C#Cc2cncnc2Nc2ccc(OCc3cccc(F)c3)c(Cl)c2)c1 class_assignment=N

From here, focus on the item given below.
Determine whether measured inhibition meets or exceeds 4% for COc1ccc2c(-c3ccnc(Nc4cccc(OC(F)(F)F)c4)n3)cnn2n1
Y

====

test_target: Mitogen-activated protein kinase 1 (Homo sapiens) (UniProt P28482);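 note: values are mean inhibition, from the GSK PKIS collection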
Sequence (P28482 whole entry): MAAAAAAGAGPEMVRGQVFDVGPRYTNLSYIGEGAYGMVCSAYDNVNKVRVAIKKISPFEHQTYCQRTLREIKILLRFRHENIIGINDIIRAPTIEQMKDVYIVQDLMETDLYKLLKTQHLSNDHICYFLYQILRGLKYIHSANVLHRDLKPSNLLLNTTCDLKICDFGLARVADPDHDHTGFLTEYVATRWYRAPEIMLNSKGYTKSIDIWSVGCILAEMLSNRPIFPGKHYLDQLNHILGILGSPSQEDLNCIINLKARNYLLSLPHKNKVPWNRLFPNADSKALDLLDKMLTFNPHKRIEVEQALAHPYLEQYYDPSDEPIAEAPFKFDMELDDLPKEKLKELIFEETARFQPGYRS
condition_label: at 1 µM
observed_property: inhibition

compound=COc1cccc(-n2ncc3c(N/N=C/c4ccc(F)cc4)ncnc32)c1 reported_measurement=2.32%
compound=CCn1c(-c2nonc2N)nc2ccccc21 reported_measurement=3.93%
compound=CN(C)CCOc1ccc(-c2nc(-c3ccncc3)c(-c3ccc4c(c3)CC/C4=N\O)[nH]2)cc1 reported_measurement=2.88%

Provide reported inhibition for each item, in the same order as listed.
1. CN1CCC(n2cnc(-c3ccc(F)cc3)c2-c2ccnc(N)n2)CC1
2. CNC(=O)c1cncc(/C=C/c2ccccc2Cl)c1
3. CS(=O)(=O)CCNCc1coc(-c2ccc3ncnc(Nc4ccc(OCc5ccccc5)cc4)c3c2)c1
4. COc1ccc(-c2cc3c(N)ncnc3o2)cc1
5. COc1cc2c(cc1Nc1nc(Nc3ccsc3C(N)=O)c3cc[nH]c3n1)N(C(=O)CN(C)C)CCC2(C)C
6. O=S(=O)(CCNCc1ccc(-c2ccc3ncnc(Nc4ccc(OCc5cccc(F)c5)c(Cl)c4)c3c2)o1)c1ccccc1

["2.71%", "-1.68%", "3.11%", "0.69%", "12.2%", "8.99%"]

State recorded inhibition for all listed compounds.
1. COC(=O)Nc1nc2ccc(Oc3ccc(NC(=O)Nc4cccc(Cl)c4)cc3)cc2[nH]1
2. Nc1nc(-c2cccc(Cl)c2)c(-c2ccc3ncccc3n2)s1
3. COc1cc(N2CCN(C(C)C)CC2)ccc1Nc1nc(Nc2ccc(F)cc2C(N)=O)c2cc[nH]c2n1
4. Clc1ccc(-c2nn3ncccc3c2-c2ccnc(Nc3ccccc3)n2)cc1
5. NC(=O)c1sc(-n2cnc3ccc(C(F)(F)F)cc32)cc1OCc1ccccc1Br
6. CC1=C(C(=O)Nc2cc(Cl)c3[nH]ncc3c2)C(c2ccc(C(F)(F)F)cc2)CC(=O)N1 (configuration not stated)
7. Fc1ccc(-c2nn3ncccc3c2-c2ccnc(Nc3ccc4c(c3)OCCO4)n2)cc1
8. Nc1nc(-c2ccc(F)cc2)c(-c2ccc3ncccc3n2)s1

1.55%
6.55%
15.3%
1.18%
4.49%
35.4%
11.1%
5.05%

Give me inhibition for each of these compounds, listed below.
1. CC(=O)Nc1cccc(C#Cc2cncnc2Nc2ccc(OCc3cccc(F)c3)c(Cl)c2)c1
2. COc1ccc2c(-c3ccnc(Nc4cccc(OC(F)(F)F)c4)n3)cnn2n1
3. CCCN1CCC(c2ccc(Nc3nc(Nc4cc(F)ccc4C(N)=O)c4cc[nH]c4n3)c(OC)c2)CC1

["3.14%", "7.52%", "30.2%"]

Could you report inhibition for every entry in the following list?
1. Cc1ccc(O)cc1Nc1ccnc2cc(-c3ccccn3)ccc12
2. CCn1c(-c2nonc2N)nc2c(C#CC(C)(C)O)nc(OC[C@H](N)c3ccccc3)cc21

1: 4.7%; 2: 5.04%
